# test-name: Half life in rat liver microsomes preincubated for 15 mins followed by NADPH addition measured after 1 hr by LC/MS-MS analysis
# Type: ADME
value-type: half-life

Return reported half-life; argument: `O=C(N[C@H]1CNC1=O)OCc1ccc2c(c1)OC(F)(F)O2`
40 min

What does the data say about its half-life? Entry: `O=C(N[C@H]1CNC1=O)OCCCCC1CCCCC1`
< 5 min

I'd like to know its half-life. The compound in question is `O=C(N[C@H]1CNC1=O)OCCCCC1CCC(F)(F)CC1`
10 min

---
Consider the compound `CCCCc1ccc(COC(=O)N[C@H]2CNC2=O)cc1` and give its measured half-life.
< 5 min

Which half-life value is on record for `O=C(N[C@H]1CNC1=O)OCc1ccc(C2CCCCC2)cc1` ?
< 5 min

Which half-life is reported for this compound? `CCCOc1ccc(COC(=O)N[C@H]2CNC2=O)cc1`
< 5 min

Entry source: ChEMBL document CHEMBL3769304
